All figures here come from PubChem BioAssay.

# protocol: PSAC antagonists in infected red cells, primary screen, cell-based, P. falciparum Indochina, OD700, 1 h (AID 1154)
# measurement-setup: P. falciparum Indochina infected RBC osmotic lysis, higher = more signal, called active from +8 up or from −8 down
Record form. Attribute: z-score. Fill in for each entry.
One number for each entry.

These solved cases illustrate the format of a correct answer.
- COc1ccc([Si](C)(C)[C@H]2[C@H](CCn3cc(CCO)nn3)O[C@@]3(C(=O)N(Cc4ccc(N5C(=O)c6cccc7cccc5c67)cc4)c4ccccc43)[C@@H]2C)cc1: 4.64
- CC(C)(C)N1CC=CC23O[C@@H]4C=CCOC(=O)[C@@H]4[C@H]2C(=O)N(CCCO)[C@@H]3C1=O (some centres undefined): -0.103
- COCCCNC(=O)[C@]1(CCC(=O)OC(C)(C)C)N=C(c2ccc(OCCCO)cc2)O[C@@H]1c1ccccc1: 14.7
- NC(=O)N1C(=O)C2C(C1=O)C1C=C(c3ccc(CO)cc3)C2C(C2CC2)N1Cc1sc2ccccc2c1Cl (centres undefined): 17.8
- CN1C(=O)C2C(C1=O)C1C=C(c3ccc(CO)cc3)C2C(c2cccs2)N1Cc1cccc(OC(F)(F)F)c1 (centres undefined): 17.4

For every item below, please supply its z-score.
1. O=C1C[C@]2(c3ccc([N+](=O)[O-])cc3)C(=O)N(Cc3ccccc3)c3cc(CO)ccc3[C@H]2N1CC12CC3CC(CC(C3)C1)C2
2. CCCCN1CC=CC23O[C@@H]4C=CCOC(=O)[C@@H]4[C@H]2C(=O)N(CCCO)[C@@H]3C1=O (some centres undefined)
3. CCC[C@@H]1C[C@@]1(CCC)[C@@H](NP(=O)(c1ccccc1)c1ccccc1)c1ccc(Cl)cc1
4. COC(=O)C[C@H]1O[C@]2(C(=O)N(C)c3ccccc32)[C@@H](C)[C@@H]1[Si](C)(C)c1ccc(C)cc1
5. COCCCNC(=O)[C@]1(Cc2ccccc2N=[N+]=[N-])N=C(c2ccc(OCCCO)cc2)O[C@@H]1c1ccccc1N=[N+]=[N-]
6. O=C1O[C@@H](c2ccccc2)[C@@H](c2ccccc2)N2[C@@H](c3ccccc3OCCO)[C@]3(C(=O)Nc4ccc(C#CCCO)cc43)[C@@H](C(=O)Nc3nc4ccccc4s3)[C@H]12
7. CCOC(=O)C[C@H]1[C@H](OC(=O)c2ccc(C(=O)c3ccccc3)cc2)[C@@H](NC(=O)c2ccc3ccccc3c2)c2cc(OCCCO)ccc2N1C(=O)c1ccccc1

Solution:
[0.556, -0.062, 0.887, 2.58, 30.8, 2.06, 0.137]

For every item below, please supply its z-score.
1. O=C1NC(=O)C2C1C=CC(C(O)c1cc(C(F)(F)F)cc(C(F)(F)F)c1)N2Nc1ccc(Cl)cc1Cl (centres undefined)
2. CCOC(=O)[C@H]1C/C=C/C[C@H](C(=O)OCC)C(=O)O[C@H]2[C@@H](OC)O[C@H](CO)[C@@H](OC(=O)CCc3ccccc3)[C@@H]2OC1=O

Solution:
0.321
0.955
